biological target: AxCT mask27 EpCAM H90.2 L041 version 1
recorded-metric: Percent cleavage (%)

| protein | reported-measurement |
| --- | --- |
| MMP-12 (protein) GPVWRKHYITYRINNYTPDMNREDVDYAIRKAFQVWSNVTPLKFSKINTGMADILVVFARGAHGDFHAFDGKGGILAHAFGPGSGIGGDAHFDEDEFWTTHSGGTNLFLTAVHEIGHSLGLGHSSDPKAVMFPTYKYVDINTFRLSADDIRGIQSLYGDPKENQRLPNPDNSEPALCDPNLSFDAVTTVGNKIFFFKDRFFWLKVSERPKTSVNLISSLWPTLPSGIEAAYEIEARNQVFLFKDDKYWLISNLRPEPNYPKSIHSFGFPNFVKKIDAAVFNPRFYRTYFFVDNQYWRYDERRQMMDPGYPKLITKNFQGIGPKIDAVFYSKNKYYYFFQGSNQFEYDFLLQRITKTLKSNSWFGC | 0 |
